Molecular target: T1, CD134 expressed on the cell surface of HT1080_OX40 cells (human, UniProt P43489 29-277); also: test concentration or dose not given here
T1 sequence (looked up): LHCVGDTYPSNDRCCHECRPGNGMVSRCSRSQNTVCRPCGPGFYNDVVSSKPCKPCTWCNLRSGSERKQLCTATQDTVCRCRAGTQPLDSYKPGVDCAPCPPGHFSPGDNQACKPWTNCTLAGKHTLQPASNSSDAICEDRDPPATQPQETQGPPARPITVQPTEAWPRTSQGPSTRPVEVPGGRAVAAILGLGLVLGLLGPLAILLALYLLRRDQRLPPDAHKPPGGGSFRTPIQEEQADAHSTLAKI
Assay: cell-based or functional assay
Param threshold (0.09 abs. corr.) applies to Functional assay IL-8; output Met when value >= threshold, Not met when value < threshold.

Identify whether the reported Functional assay IL-8 of the following binder is 0.09 abs. corr. or greater: P018.S.11.A.H02 (antibody, V domains shown, V regions on human Ig constant parts; also called AB134_46) VH: QSVEESGGRLVTPGTPLTLTCTVSGFSLSNYAMSWVRQAPGKGLEWIGIISPSGNTYYANWAKGRFTISKTSTTVDLKITSPTTEDTATYFCAREGALYDDYGDYVDAFDPWGPGTLVTVSS VL: AAVLTQTPSPVSAAVGGTVSISCQSSESVYNNNWLSWYQQKPGQPPKLLIYRASTLASGVPSRFKGSGSGTQFTLTISDVQSDDAATYYCAGGYSSSSDINAFGGGTEVVVK
Met

Is Functional assay IL-8 for P018.S.12.A.B02 (antibody, V domains shown, V regions on human Ig constant parts; also called AB134_57) VH: QSLEESGGRLVTPGTPLTLTCTVSGIDLSKYTMTWVRQAPGKGLEWIGLISFGGRGGTWYANWAKGRFTISKTSTTVDLRIASPTTEDTATYFCARARYSGTNYDYFNLWGQGTLVTVSS VL: AYDMTQTPASVEVAVGGTVTIKCQASQSISNWLAWYQQKPGQRPKLLIYGASNLESGVPSRFKGSGSGTDFTLTISDLESADAATYYCQQGYSSDGVTNAFGGGTEVVVE at or above 0.09 abs. corr.?
Not met

Does Functional assay IL-8 meet or surpass 0.09 abs. corr. for P018.S.12.A.E01 (antibody, V domains shown, V regions on human Ig constant parts; also called AB134_72) VH: QSVEESGGRLVTPGGSLTLTCTVSGIDLSSADMSWVRQAPGEGLEYIGWINNVGSAYYASWAKGRFSISKTSSTTVDLKVTSLTTEDTATYFCVRGYWLDLWGQGTLVTVSS VL: AAVLTQTPSPVSAAVGGTVSISCQSSVNVYNNNYLAWFQQKPGQPPKLLIYAASTLPSGVSSRFSGNGSGTEFTLTISGVQSDDAATYYCVGYYSSTDDNGFGGGTEVVVK ?
Met

Kindly determine if Functional assay IL-8 recorded for P018.S.11.A.B06 (antibody, V domains shown, V regions on human Ig constant parts; also called AB134_27) VH: QSVEESGGRLVTPGTPLTLTCTASGFSLINYNMGWVRQAPGEGLEWIGTILTDGTVYYSNWAKGQFTISKTSTTVDLEMTSPTNEDTATYFCARDYPSYIAFDLWGPGTLVTVSS VL: AQVLTQTASSVSAAVGGTVTINCQASQSVYNDDNLAWLQQKPGQPPKLLIYGASSLASGVPSRFSGSGSGTEFTLTISGVQSEDAAIYYCQGGGFSSGWYWAFGGGTEVVVK is above or exactly 0.09 abs. corr..
Met
